Let's look at some molecules and their measured molar heat capacity at constant pressure.
Test: molar heat capacity at constant pressure
Conditions: 350 K; 101.33 kPa; Liquid; Large sample (1 g) DSC

- molecule: "C=C1CC[C@H]2C[C@@H]1C2(C)C [(1S,5S)-6,6-dimethyl-2-methylenebicyclo[3.1.1]heptane]"
  unit-symbol: "J/K/mol"
  molar heat capacity at constant pressure: 272.05
- molecule: "CC1=CC(=O)[C@H]2C[C@@H]1C2(C)C [(-)-verbenone]"
  unit-symbol: "J/K/mol"
  molar heat capacity at constant pressure: 292
- molecule: "CC1=C[C@H](O)[C@H]2C[C@@H]1C2(C)C [(-)-cis-verbenol]"
  unit-symbol: "J/K/mol"
  molar heat capacity at constant pressure: 377.14
- molecule: "CC1=CC[C@H]2C[C@@H]1C2(C)C [(S)-2-pinene]"
  unit-symbol: "J/K/mol"
  molar heat capacity at constant pressure: 282.11

----------
Let's look at some molecules and their measured molar heat capacity at constant pressure.
Assay: molar heat capacity at constant pressure
Conditions: 344.9 K; 101.33 kPa; Liquid; Large sample (1 g) DSC
Numbers after ± are expanded uncertainties.
assay-readout: molar heat capacity at constant pressure

- molecule: "CC1=CC(=O)[C@H]2C[C@@H]1C2(C)C [(-)-verbenone]"
  assay-readout: "molar heat capacity at constant pressure"
  result-value: "289.68 ± 5 J/K/mol"
- molecule: "CC1=C[C@H](O)[C@H]2C[C@@H]1C2(C)C [(-)-cis-verbenol]"
  assay-readout: "molar heat capacity at constant pressure"
  result-value: "372.99 ± 19 J/K/mol"
- molecule: "C=C1CC[C@H]2C[C@@H]1C2(C)C [(1S,5S)-6,6-dimethyl-2-methylenebicyclo[3.1.1]heptane]"
  assay-readout: "molar heat capacity at constant pressure"
  result-value: "269.47 ± 4.7 J/K/mol"
- molecule: "CC1=CC[C@H]2C[C@@H]1C2(C)C [(S)-2-pinene]"
  assay-readout: "molar heat capacity at constant pressure"
  result-value: "278.7 ± 4.8 J/K/mol"

----------
Assay: molar heat capacity at constant pressure
Conditions: 355.1 K; 101.33 kPa; Liquid; Large sample (1 g) DSC
Numbers after ± are expanded uncertainties.
assay-readout: molar heat capacity at constant pressure

- compound: "CC1=CC(=O)[C@H]2C[C@@H]1C2(C)C [(-)-verbenone]"
  result-value: "294.42 ± 5.1 J/K/mol"
- compound: "CC1=CC[C@H]2C[C@@H]1C2(C)C [(S)-2-pinene]"
  result-value: "284.44 ± 4.9 J/K/mol"
- compound: "CC1=C[C@H](O)[C@H]2C[C@@H]1C2(C)C [(-)-cis-verbenol]"
  result-value: "381.47 ± 20 J/K/mol"
- compound: "C=C1CC[C@H]2C[C@@H]1C2(C)C [(1S,5S)-6,6-dimethyl-2-methylenebicyclo[3.1.1]heptane]"
  result-value: "275.21 ± 4.7 J/K/mol"
